# System: HCT-15 colon
# ASSAY DETAILS: NCI tumour cell line growth inhibition, 48 h
ASSAY METRIC: TGI

{"columns": ["COMPOUND", "SYSTEM NAME", "RECORDED MEASUREMENT"],
 "data": [
  ["CCC(=O)Nc1ccccc1C#C/C=C\\C#Cc1ccccc1SC", "HCT-15 colon", "> 100 µM"],
  ["CCCCCCCCCCCCN1[C@H]2CCC[C@H]2C(O)[C@@H]2CCC[C@@H]21 (stereo partly drawn)", "HCT-15 colon", "> 100 µM"],
  ["C=C(CN1CCN(c2cccc(C(F)(F)F)n2)CC1)c1ccc(C(=O)Nc2ccccc2N)cc1", "HCT-15 colon", "> 100 µM"]
]}

Just for reference, PubChem BioAssay (NCI) is where these values come from.
